Catalogue of compounds with associated Kd
# EXPERIMENTAL SYSTEM: BN/GRP receptor-positive PC3 human prostate cancer cells (Homo sapiens, UniProt P30550)
# Construct: BN/GRP receptor-positive MDA-MB-231, MCF7, T47D human breast cancer, and PC3 human prostate cancer lines; intact cells
# MEASUREMENT NOTES: Saturation binding assay on PC3 cells
# TEST CONDITIONS: ~300,000 cells, 0.1-25 nM radiopeptide, 60 min, room temperature, n = 3-5 experiments, mean ± SD
Numbered stars: 1 amine (or outer) side, 2 acyl side, 3 side chain; on linkers, the order of the positions; unused ones are H or OH. Square brackets hold non-standard residues; d marks the D form. Peptide text beside a SMILES is read from it. * marks the point of attachment. DOTA = O=C(O)CN1CCN(CC(=O)O)CCN(CC(=O)*)CCN(CC(=O)O)CC1; Cha = N[C@@H](CC1CCCCC1)C(=O)O; X1 = O=C(CCC(=O)[*:2])CN[*:1]; Nle = CCCC[C@H](N)C(=O)O; Ahx = NCCCCCC(=O)O
Only the number, expressed in nM, is required.

Give Kd for this entry on BN/GRP receptor-positive PC3 human prostate cancer cells (Homo sapiens, UniProt P30550): CCCC[C@H](NC(=O)[C@H](Cc1c[nH]cn1)NC(=O)[C@H](CC1CCCCC1)NC(=O)[C@@H](NC(=O)[C@H](C)NC(=O)[C@H](Cc1c[nH]c2ccccc12)NC(=O)[C@H](CCC(N)=O)NC(=O)[C@H](CS)NC(=O)CNC(=O)CNC(=O)CCC(=O)CNC(=O)CN1CCN(CC(=O)O)CCN(CC(=O)O)CCN(CC(=O)O)CC1)C(C)C)C(=O)N[C@@H](CCSC)C(N)=O [^68Ga-DOTA-ALA-BN Tris-, metal not drawn] ({DOTA}-[X1]GGCQWAV[Cha]H[Nle]M-NH2)
13.5

Give Kd for this entry on BN/GRP receptor-positive PC3 human prostate cancer cells (Homo sapiens, UniProt P30550): CCCC[C@H](NC(=O)[C@H](Cc1c[nH]cn1)NC(=O)[C@H](CC1CCCCC1)NC(=O)[C@@H](NC(=O)[C@H](C)NC(=O)[C@H](Cc1c[nH]c2ccccc12)NC(=O)[C@H](CCC(N)=O)NC(=O)[C@H](CS)NC(=O)CNC(=O)CNC(=O)CCCCCNC(=O)CN1CCN(CC(=O)O)CCN(CC(=O)O)CCN(CC(=O)O)CC1)C(C)C)C(=O)N[C@@H](CCSC)C(N)=O [^68Ga-DOTA-Ahx-BN Tris-, metal not drawn] ({DOTA-Ahx}-GGCQWAV[Cha]H[Nle]M-NH2)
10.4

Give Kd for this entry on BN/GRP receptor-positive PC3 human prostate cancer cells (Homo sapiens, UniProt P30550): CCCC[C@H](NC(=O)[C@H](Cc1c[nH]cn1)NC(=O)[C@H](CC1CCCCC1)NC(=O)[C@@H](NC(=O)[C@H](C)NC(=O)[C@H](Cc1c[nH]c2ccccc12)NC(=O)[C@H](CCC(N)=O)NC(=O)[C@H](CS)NC(=O)CNC(=O)CNC(=O)CCCCCNC(=O)CN1CCN(CC(=O)O)CCN(CC(=O)O)CCN(CC(=O)O)CC1)C(C)C)C(=O)N[C@@H](CCSC)C(N)=O [^68Ga-DOTA-Ahx-BN Cyclen, metal not drawn] ({DOTA-Ahx}-GGCQWAV[Cha]H[Nle]M-NH2)
9.89
